EXPERIMENT SUMMARY: Octanol-water partition coefficient, logD of the compound at pH 1
Type: physicochemical
MEASUREMENT NAME: logD

// query Look at this molecule and give its reported logD. COc1ccc2c(c1)CC(c1c[nH]c3ccc(OC)cc13)N2 (stereo unspecified)
// result 1.66

* * *

EXPERIMENT SUMMARY: Displacement of 2-[125I]iodomelatonin from human MT2R transfected in CHO cells incubated for 30 mins
Type: cell-based
MEASUREMENT NAME: Ki (nM)
Please state the figure in nM; there is no need to write the unit.

>  <COMPOUND>
COc1ccc2c(c1)CC(c1c[nH]c3ccc(OC)cc13)N2 (configuration not stated)

>  <MEAS VALUE>
620

$$$$

Next up:
// query Look at this compound and give its reported Ki. COc1ccc2[nH]cc(CCNC(C)=O)c2c1 [MELATONIN]
// result 0.13

* * *

EXPERIMENT SUMMARY: Octanol-water partition coefficient, logD of the compound at pH 10
Assay type: physicochemical
MEASUREMENT NAME: logD

// query Look at this molecule and give its reported logD. COc1ccc2c(c1)CC(c1c[nH]c3ccc(OC)cc13)N2 (stereo unspecified)
// result 3.31

* * *

EXPERIMENT SUMMARY: Aqueous solubility of compound incubated for 24 hrs by UV-spectra analysis
Format: physicochemical
MEASUREMENT NAME: solubility at 24 h (mM)
Please state the figure in mM; there is no need to write the unit.

>  <COMPOUND>
COc1ccc2[nH]cc(CCNC(C)=O)c2c1 [MELATONIN]

>  <UNITS>
mM

>  <solubility at 24 h>
6.64

$$$$

// query Look at this compound and give its reported solubility at 24 h. COc1ccc2c(c1)CC(c1c[nH]c3ccc(OC)cc13)N2 (configuration not stated)
// result 0.0329

* * *

EXPERIMENT SUMMARY: Displacement of 2-[125I]iodomelatonin from human MT1R transfected in CHO cells incubated for 30 mins
Assay type: cell-based
MEASUREMENT NAME: Ki (µM)
Please state the figure in µM; there is no need to write the unit.

// query Look at this compound and give its reported Ki. `COc1ccc2[nH]cc(CCNC(C)=O)c2c1`
// result 0.00027

* * *

EXPERIMENT SUMMARY: Octanol-water partition coefficient, logD of the compound at pH 7.4
Format: physicochemical
MEASUREMENT NAME: logD

// query Look at this compound and give its reported logD. COc1ccc2c(c1)CC(c1c[nH]c3ccc(OC)cc13)N2 (stereo unspecified)
// result 3.31

* * *

EXPERIMENT SUMMARY: Octanol-water partition coefficient, logD of the compound at pH 9
Assay type: physicochemical
MEASUREMENT NAME: logD
Just the number, please, no unit attached.

// query Look at this compound and give its reported logD. COc1ccc2c(c1)CC(c1c[nH]c3ccc(OC)cc13)N2 (stereo unspecified)
// result 3.31

* * *

EXPERIMENT SUMMARY: Octanol-water partition coefficient, logD of the compound at pH 4
Format: physicochemical
MEASUREMENT NAME: logD
Just the number, please, no unit attached.

// query Look at this molecule and give its reported logD. COc1ccc2c(c1)CC(c1c[nH]c3ccc(OC)cc13)N2 (stereo unspecified)
// result 2.28

* * *

EXPERIMENT SUMMARY: Octanol-water partition coefficient, logD of the compound at pH 12
Format: physicochemical
MEASUREMENT NAME: logD
Just the number, please, no unit attached.

// query Look at this molecule and give its reported logD. COc1ccc2c(c1)CC(c1c[nH]c3ccc(OC)cc13)N2 (stereo unspecified)
// result 3.31
